Assay: yeast display, Sf9 membrane polyspecificity reagent, FACS + sequencing; frameworks hold sequencing errors
endpoint label: polyreactivity (PSR sort gate)

In the examples that follow, each entry is paired with its recorded polyreactivity (PSR sort gate).
| sequence chain | polyreactivity (PSR sort gate) |
| --- | --- |
| QVQLVESGGGLVQAGGSLRLTCAASGAIFEYYSMSWYIQAPGKERELVAAISSGGPTYYADSVKGRFTISRDNAKNTVYLQMNSLKPEDTAVYYCNADLWYPDYEYWGQGTQVNVSS | low polyreactivity |
| QVQLVESGGCLVQAGGSLRLSCAASGLTFAENAMGWYREAPGKERELVAAISASGGSTYYADSVKGRFTSSRDNAKNTVYLQMNSLKPEDTAVYYCATRVAFLWPRRDYDYWGQGTQVNVSS | low polyreactivity |
| QVQLVESGGGLVQAGGSLRLSCAASGSISYYAMGWYRQAPGKEMELVAAISQSGGSTYYADSVKGRFTISRDNAKNTVYLQMNSLKPEDTAVYYCAAKSPYSSYYPYGYWGQGTQVTVSS | high polyreactivity |
| QVQLVESGGGLVQAGGSLRLSCPASGLTFGWYAMGWYRQAPGKERELVASITRRSGSTYYADSVKGRFTISRDNAKNTVYLQMNSLKPEDTAVYFWAARSRGTTRFDYWGQGTQVTVSS | high polyreactivity |

For the sequence QVQLVESGGGLVQAGGSLRLSCAASGSTFFVYTMGWYRQAPGKERELVAAISGSGGSTSYADSVKGRFTISRDNAKNTVYLQMNSLKPEDTAVYYCAARRHVYLRGSTFEFNYWGQGTQVTVSS , report polyreactivity (PSR sort gate).
high polyreactivity

###

Test: yeast display, Sf9 membrane polyspecificity reagent, FACS + sequencing; frameworks hold sequencing errors
endpoint label: polyreactivity (PSR sort gate)

In the examples that follow, each entry is paired with its recorded polyreactivity (PSR sort gate).
| sequence chain | polyreactivity (PSR sort gate) |
| --- | --- |
| QVQLVESGGGLVQAGGSLRLSCAASGFTFSDYAMGWYRQAPGKDRELVATISNGDSPYYADSVKGRFTISRDNAKNTVYVQMNSLKPVDTAVNYCATDQPYGADPSNDFDYWGQGTQVTVSS | low polyreactivity |
| QVQHVESGGGLVQAGGSLRLSCAASGSTFYYYAMGWYRQARGKERELVATISRSTARTFYADSVKGRFTISRDNAKITVYLQMNSLKPEDTAVYYCAREYYYRRGFFLRGYWGQGTQVTVSS | high polyreactivity |
| QVQLVESGGCLVQAGGSLRLSCAASGRIFPGYAMGWYRQAPGKEREFVAAITASGGTTYYADSVKGRFTISRDNAKNTVYLQMNSLKPEDTAVYYCAKYRYTVAGYNYWGQGTQVTVSS | high polyreactivity |
| QVQLVESGGGLVQAGGSLRLSCAASGFIFADYAMGWYRQAPGKERELVAAITSSGTRTYYADSVKGRFTISRDNAKNTVYLQMNSLKPEDTAVYYCAVRGVYYYHCAFDYWGQGTQVTVSS | high polyreactivity |
| QVQLVESGGGLVQAGGSLRLSCAASGLTFVYNDMGWYRQAPGKERELVAGITSGGSTSYADSVKGRFTISRDNAKNTVYLQMNSLKPEDTAVYYCAAGVYALRRDYWGQGTQVTVSS | low polyreactivity |

For the sequence QVQLLESGGGLVQAGGSLRLICAASGSTFVVYAMGWYRQAPGKERELVAAIRSGGGTYYADSVKGRFTISRDNAKNTVYLQMNSQKPEDTAVYYCNADSDPGPAYVYRDLYDYWGQGTQVTLSS , report polyreactivity (PSR sort gate).
low polyreactivity

For the sequence QDQLVESGGGLVQAGGSLRLSCAASGFIFGLNAMGWYRQAPGKERELVASISRRCGSTYYAYSVKGRFTISRDNAKNTVYLQMNSLKPEDTAVYYCASDTLGGTSLGDYWGQGIQVTVSS , report polyreactivity (PSR sort gate).
high polyreactivity

Hey, just so you know, these numbers are from the nanobody polyreactivity screen of Harvey et al. (2022).
